- targetUnderTest: T1, human PVRIG-his (AcroBiosystems, Cat NO. PVG-H52H4) (human, UniProt Q6DKI7 41-171, limits assumed)
- T1 construct: also called human PVRIG protein
- T1 sequence (looked up): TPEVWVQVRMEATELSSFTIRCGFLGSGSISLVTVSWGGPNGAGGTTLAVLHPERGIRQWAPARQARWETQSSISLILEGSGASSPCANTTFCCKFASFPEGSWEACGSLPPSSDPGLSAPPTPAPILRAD
- procedureSummary: ELISA, antigen coated
measurementKind: pEC50
Answer as the number alone; pEC50 is minus log10 of concentration in mol/L.

>  <binder>
PVRIG-A50-H2a (Fc fusion, humanized variant of PVRIG-A50; also called A50.VH2a; not shown: constant part not restated for the humanized forms; parents are VHH-hinge-CH2-CH3 of human IgG1; detected by anti-human) EVQLVESGGGLVQPGGSLRLSCAASGFTFSYYDMSWVRQAPGKGLEWVSTINSNAGRTSYVDSVKGRFTISRDNTKNTLYLQMNSLRAEDTAVYYCVEGDPHNFGLESLSLRDFGSWGQGTMVTVSS

>  <pEC50>
10.18

$$$$

Lab note: next binder to report on.
## Task Reported pEC50, binder PVRIG-A105-H3a (Fc fusion, humanized variant of PVRIG-A105; also called A105.VH3a; not shown: constant part not restated for the humanized forms; parents are VHH-hinge-CH2-CH3 of human IgG1; detected by anti-human) EVQLVESGGGLVQPGGSLRLSCAASGRTFDRHTMTWFRQAPGKEREFVATASRIPGDTYYVDSVKGRFTISRDNAKNSVYLQMNSLRAEDTAVYYCAATSAYSSEVDSYEKGSWYDNWGQGTMVTVSS : ____
## Result 8.13
